System: MDA-MB-468 breast
runDescription: NCI-60 one-dose screen, 48 h
protocolConditions: 10 µM unless noted
About 83,000 compounds went through this panel and 20% of them were active in at least one assay; those are over-represented in the sample as a whole. Activity calls are given as the source filed them. Rule for the calls: active = growth percent below 10; inactive = the rest.
Please answer using one outcome listed in active, inactive

Enquiry: Query: recorded result category for "C=C1C(=O)O[C@H]2[C@H]1CC/C(COC(=O)NCc1ccc(OC)c(OC)c1)=C\CC[C@@]1(C)O[C@@H]21" in this test
Return: inactive

Enquiry: Query: recorded result category for "COc1cc(C=Nc2oc(-c3ccccc3)c(-c3ccccc3)c2C#N)cc(CN2CCCCC2)c1O" in this test
Return: inactive

Enquiry: Query: recorded result category for "C#C[C@]1(O)CC[C@H]2[C@@H]3CC=C4c5sc(Nc6ccc(OC)nc6)nc5CC[C@]4(C)[C@H]3CC[C@@]21C" in this test
Return: inactive

Enquiry: Query: recorded result category for "C[C@]12CCC(=O)C=C1CC[C@H]1[C@@H]3C[C@@H](O)[C@](O)(C(=O)CO)[C@@]3(C)C[C@H](O)[C@@]12F" in this test
Return: inactive

// data source = PubChem BioAssay (NCI)
